target.or.system: mycobacterial isocitrate lyase (ICL1, Rv0467) (Mycobacterium tuberculosis)
Construct: His tag (from pET-28b(+)); made in house; host or cells: E. coli BL21(DE3), pET-28b(+) plasmid
Sequence (P9WKK7 whole entry): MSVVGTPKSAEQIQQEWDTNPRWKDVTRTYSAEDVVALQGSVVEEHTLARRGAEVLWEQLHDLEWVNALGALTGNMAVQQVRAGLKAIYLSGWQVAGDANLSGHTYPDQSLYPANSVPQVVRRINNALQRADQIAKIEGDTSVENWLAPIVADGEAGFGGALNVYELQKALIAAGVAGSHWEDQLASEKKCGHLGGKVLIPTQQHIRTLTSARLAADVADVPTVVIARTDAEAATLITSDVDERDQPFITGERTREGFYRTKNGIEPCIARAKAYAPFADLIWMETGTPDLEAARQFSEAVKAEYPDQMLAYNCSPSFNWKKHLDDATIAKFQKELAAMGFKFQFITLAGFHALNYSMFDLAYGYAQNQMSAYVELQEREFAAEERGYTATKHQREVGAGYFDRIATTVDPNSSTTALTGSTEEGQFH
assay.explanation: Isocitrate lyase inhibition assay (ICL1)
Format: biochemical, Mycobacterium tuberculosis H37Rv
condition.description: 10 μmol/L; read-out: % ICL inhibition at 10 μmol/L (± standard deviation)
// values below are reported inhibition at 10 µM
Numeric only. Scale: %

Guide cases for inhibition at 10 µM, answers given:
compound	target.or.system	val
O=C(Oc1cc(Cl)ccc1C(=O)Nc1ccc(Cl)c(Cl)c1)c1ccc(C(F)(F)F)cc1	mycobacterial isocitrate lyase (ICL1, Rv0467) (Mycobacterium tuberculosis)	17
NNC(=O)c1ccncc1 [INH, isoniazid, reference compound]	mycobacterial isocitrate lyase (ICL1, Rv0467) (Mycobacterium tuberculosis)	0
O=C(Oc1ccc(Cl)cc1C(=O)Nc1ccc(Br)cc1)c1ccc(C(F)(F)F)cc1	mycobacterial isocitrate lyase (ICL1, Rv0467) (Mycobacterium tuberculosis)	18
O=C(Oc1cc(Cl)ccc1C(=O)Nc1ccc(C(F)(F)F)cc1)c1ccc(C(F)(F)F)cc1	mycobacterial isocitrate lyase (ICL1, Rv0467) (Mycobacterium tuberculosis)	17
O=C(Oc1ccc(Cl)cc1C(=O)Nc1cccc(C(F)(F)F)c1)c1ccc(C(F)(F)F)cc1	mycobacterial isocitrate lyase (ICL1, Rv0467) (Mycobacterium tuberculosis)	19
O=C(Oc1ccc(Cl)cc1C(=O)Nc1cccc(Cl)c1)c1ccc(C(F)(F)F)cc1	mycobacterial isocitrate lyase (ICL1, Rv0467) (Mycobacterium tuberculosis)	18
O=C(Oc1cc(Cl)ccc1C(=O)Nc1cccc(Cl)c1)c1ccc(C(F)(F)F)cc1	mycobacterial isocitrate lyase (ICL1, Rv0467) (Mycobacterium tuberculosis)	13
O=C(O)CC[N+](=O)[O-] [3-NP, 3-nitropropionic acid, reference compound]	mycobacterial isocitrate lyase (ICL1, Rv0467) (Mycobacterium tuberculosis)	25

Query :: Quick one: inhibition at 10 µM for `O=C(Oc1ccc(Cl)cc1C(=O)Nc1ccc(C(F)(F)F)cc1)c1ccc(C(F)(F)F)cc1` ?
Result :: 13

Query :: Continue with `O=C(Oc1ccc(Cl)cc1C(=O)Nc1ccc(Cl)c(Cl)c1)c1ccc(C(F)(F)F)cc1`
Result :: 18

====

System: Mtb. 7357/1988
assay.explanation: microbe, parasite or virus in culture
Format: cell-based
condition.description: Mycobacterium tuberculosis, 336 h, read-out: MIC Mtb. 7357/1988
The label is Criterion met for MIC below 2 µM and Criterion not met for MIC equal to or exceeding 2 µM.

Solved cases (3 shown):
mol	class.assignment
O=C(Oc1cc(Cl)ccc1C(=O)Nc1cccc(Cl)c1)c1ccc(C(F)(F)F)cc1	Criterion not met
O=C(Oc1ccc(Br)cc1C(=O)Nc1ccc(C(F)(F)F)cc1)c1ccc(C(F)(F)F)cc1	Criterion met
O=C(Oc1ccc(Cl)cc1C(=O)Nc1ccc(Cl)c(Cl)c1)c1ccc(C(F)(F)F)cc1	Criterion met

Query :: Please check: MIC for `O=C(Oc1cc(Cl)ccc1C(=O)Nc1ccc(Cl)cc1)c1ccc(C(F)(F)F)cc1` , strictly under 2 µM or not?
Result :: Criterion not met

Query :: Continue with `O=C(Oc1ccc(Cl)cc1C(=O)Nc1cccc(Cl)c1)c1ccc(C(F)(F)F)cc1`
Result :: Criterion not met

Query :: Continue with `O=C(Oc1ccc(Cl)cc1C(=O)Nc1ccc(C(F)(F)F)cc1)c1ccc(C(F)(F)F)cc1`
Result :: Criterion met

====

System: Mtb. 9449/2006
assay.explanation: microbe, parasite or virus in culture
Assay type: cell-based
condition.description: Mycobacterium tuberculosis, 336 h, read-out: MIC Mtb. 9449/2006
// values below are reported MIC
Report as: number unit

molecule	MIC
O=C(Oc1cc(Cl)ccc1C(=O)Nc1ccc(Br)cc1)c1ccc(C(F)(F)F)cc1 [1j]	2 µM
O=C(Oc1ccc(Cl)cc1C(=O)Nc1ccc(Br)cc1)c1ccc(C(F)(F)F)cc1 [1i]	2 µM

Query :: Quick one: MIC for O=C(Oc1cc(Cl)ccc1C(=O)Nc1ccc(Cl)c(Cl)c1)c1ccc(C(F)(F)F)cc1 [1f] ?
Result :: 2 µM

====

// values below are reported MIC
System: M. kansasii 6509/96 (clinically isolated strain)
assay.explanation: Antimycobacterial MIC micromethod
Format: cell-based
condition.description: Mycobacterium kansasii, 336 h; 14 d; read-out: MIC M. kansasii 6509/96

Guide cases for MIC, answers given:
compound	MIC
O=C(Oc1ccc(Cl)cc1C(=O)Nc1cccc(Br)c1)c1ccc(C(F)(F)F)cc1	4 µM
O=C(Oc1ccc(Cl)cc1C(=O)Nc1ccc(F)cc1)c1ccc(C(F)(F)F)cc1	16 µM
O=C(Oc1cc(Cl)ccc1C(=O)Nc1ccc(Cl)c(Cl)c1)c1ccc(C(F)(F)F)cc1	2 µM
O=C(Oc1cc(Cl)ccc1C(=O)Nc1ccc(Br)cc1)c1ccc(C(F)(F)F)cc1	4 µM

Query :: API: value(readout=MIC, system=M. kansasii 6509/96 (clinically isolated strain)) for record `O=C(Oc1ccc(Cl)cc1C(=O)Nc1cccc(F)c1)c1ccc(C(F)(F)F)cc1`
Result :: 16 µM

Query :: Continue with `O=C(Oc1ccc(Cl)cc1C(=O)Nc1ccc(C(F)(F)F)cc1)c1ccc(C(F)(F)F)cc1`
Result :: 2 µM

Query :: Continue with `O=C(Oc1ccc(Cl)cc1C(=O)Nc1cccc(Cl)c1)c1ccc(C(F)(F)F)cc1`
Result :: 8 µM

Query :: Continue with O=C(O)c1ccc(C(F)(F)F)cc1 [CF3-BA, 4-(trifluoromethyl)benzoic acid, reference compound]
Result :: 1000 µM

Query :: Continue with `O=C(Oc1cc(Cl)ccc1C(=O)Nc1cccc(Br)c1)c1ccc(C(F)(F)F)cc1`
Result :: 8 µM

Query :: Continue with `O=C(Oc1ccc(Cl)cc1C(=O)Nc1ccc(Cl)cc1)c1ccc(C(F)(F)F)cc1`
Result :: 4 µM

====

Tested on: Mycobacterium kansasii 235/80
assay.explanation: Antimycobacterial MIC micromethod
Format: cell-based
condition.description: 235/80, 168 h, 7 d, read-out: MIC M. kansasii 235/80
// values below are reported MIC
Numeric only. Scale: µM

mol	display.unit	val
O=C(Oc1ccc(Cl)cc1C(=O)Nc1cccc(Br)c1)c1ccc(C(F)(F)F)cc1	µM	2
O=C(Oc1ccc(Br)cc1C(=O)Nc1ccc(C(F)(F)F)cc1)c1ccc(C(F)(F)F)cc1	µM	1
O=C(Oc1ccc(Cl)cc1C(=O)Nc1cccc(Cl)c1)c1ccc(C(F)(F)F)cc1	µM	0.5
O=C(Oc1cc(Cl)ccc1C(=O)Nc1ccc(Cl)c(Cl)c1)c1ccc(C(F)(F)F)cc1	µM	1
O=C(Oc1ccc(Cl)cc1C(=O)Nc1cccc(F)c1)c1ccc(C(F)(F)F)cc1	µM	8
O=C(Oc1ccc(Cl)cc1C(=O)Nc1ccc(Br)cc1)c1ccc(C(F)(F)F)cc1	µM	1
O=C(Oc1cc(Cl)ccc1C(=O)Nc1ccc(Br)cc1)c1ccc(C(F)(F)F)cc1	µM	1
O=C(Oc1cc(Cl)ccc1C(=O)Nc1ccc(Cl)cc1)c1ccc(C(F)(F)F)cc1	µM	1

Shifting focus to the compound that follows.
Query :: Quick one: MIC for `O=C(Oc1ccc(Cl)cc1C(=O)Nc1ccc(Cl)cc1)c1ccc(C(F)(F)F)cc1` ?
Result :: 1

====

Test system: Mycobacterium kansasii 235/80
assay.explanation: Antimycobacterial MIC micromethod
Format: cell-based
condition.description: 235/80, 168 h, 7 d, read-out: MIC M. kansasii 235/80
observed.property: MIC (µM)
Numeric only. Scale: µM

compound	target.or.system	MIC, µM
O=C(Oc1ccc(Cl)cc1C(=O)Nc1ccc(C(F)(F)F)cc1)c1ccc(C(F)(F)F)cc1 [1o]	Mycobacterium kansasii 235/80	1
O=C(Oc1ccc(Cl)cc1C(=O)Nc1cccc(C(F)(F)F)c1)c1ccc(C(F)(F)F)cc1 [1q]	Mycobacterium kansasii 235/80	2
O=C(Oc1ccc(Cl)cc1C(=O)Nc1ccc(F)cc1)c1ccc(C(F)(F)F)cc1 [1m]	Mycobacterium kansasii 235/80	4
O=C(O)c1ccc(C(F)(F)F)cc1 [CF3-BA, 4-(trifluoromethyl)benzoic acid, reference compound]	Mycobacterium kansasii 235/80	1000
O=C(Oc1cc(Cl)ccc1C(=O)Nc1cccc(F)c1)c1ccc(C(F)(F)F)cc1 [1l]	Mycobacterium kansasii 235/80	4

Query :: Quick one: MIC for O=C(Oc1cc(Cl)ccc1C(=O)Nc1cccc(Br)c1)c1ccc(C(F)(F)F)cc1 [1h] ?
Result :: 4

Query :: Continue with O=C(Oc1ccc(Cl)cc1C(=O)Nc1ccc(Cl)c(Cl)c1)c1ccc(C(F)(F)F)cc1 [1e]
Result :: 1

Query :: Continue with O=C(Oc1cc(Cl)ccc1C(=O)Nc1ccc(F)cc1)c1ccc(C(F)(F)F)cc1 [1n]
Result :: 2

Query :: Continue with O=C(Oc1cc(Cl)ccc1C(=O)Nc1ccc(C(F)(F)F)cc1)c1ccc(C(F)(F)F)cc1 [1p]
Result :: 2

Query :: Continue with O=C(Oc1cc(Cl)ccc1C(=O)Nc1cccc(Cl)c1)c1ccc(C(F)(F)F)cc1 [1b]
Result :: 1

Cited source for all entries: paper PMC6270420
